# Organism: Homo sapiens
# Assay Comment: Selectivity for human adenosine A3 receptor over human adenosine A2A receptor
Test Readout: Ratio Ki

Structure | Test Readout | Reported Result
CNC(=O)OC[C@H]1O[C@@H](n2cnc3c(NC4CCCC4)nc(Cl)nc32)[C@](C)(O)[C@@H]1O | Ratio Ki | 1.2
CNC(=S)OC[C@H]1O[C@@H](n2cnc3c(N[C@@H]4CCOC4)nc(Cl)nc32)[C@](C)(O)[C@@H]1O | Ratio Ki | 1.3

---

# Measurement Target: Adenosine receptors; A1 & A3 (Homo sapiens) (UniProt P30542+P0DMS8)
# Sequence (P0DMS8 whole entry, looked up): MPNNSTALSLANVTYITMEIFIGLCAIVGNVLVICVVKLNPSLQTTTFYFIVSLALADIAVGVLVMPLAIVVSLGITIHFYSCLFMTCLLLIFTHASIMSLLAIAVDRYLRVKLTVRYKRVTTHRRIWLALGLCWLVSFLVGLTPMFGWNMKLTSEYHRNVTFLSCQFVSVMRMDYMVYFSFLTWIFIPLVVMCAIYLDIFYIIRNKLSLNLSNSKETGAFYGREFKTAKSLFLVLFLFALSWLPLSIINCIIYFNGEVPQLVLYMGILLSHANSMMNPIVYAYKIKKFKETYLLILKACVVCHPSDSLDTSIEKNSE
# Sequence (P30542 whole entry, looked up): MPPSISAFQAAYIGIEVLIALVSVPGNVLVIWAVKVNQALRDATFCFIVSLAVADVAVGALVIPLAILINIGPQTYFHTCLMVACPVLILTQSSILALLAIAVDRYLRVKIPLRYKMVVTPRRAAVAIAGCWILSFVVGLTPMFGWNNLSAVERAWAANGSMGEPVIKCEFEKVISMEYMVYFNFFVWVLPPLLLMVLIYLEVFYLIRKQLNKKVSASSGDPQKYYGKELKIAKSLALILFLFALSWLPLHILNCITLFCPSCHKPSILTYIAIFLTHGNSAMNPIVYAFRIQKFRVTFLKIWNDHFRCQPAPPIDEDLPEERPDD
# Assay Comment: Selectivity for human adenosine A1 receptor over human adenosine A3 receptor
Test Readout: Ratio Ki

Structure | Ratio Ki
OC[C@H]1O[C@@H](n2cnc3c(N[C@@H]4CCOC4)nc(Cl)nc32)[C@H](O)[C@@H]1O | 113

[A] C[C@@]1(O)[C@H](O)[C@@H](CO)O[C@H]1n1cnc2c(N[C@@H]3CCOC3)nc(Cl)nc21
[B] CNC(=S)OC[C@H]1O[C@@H](n2cnc3c(N[C@@H]4CCOC4)nc(Cl)nc32)[C@](C)(O)[C@@H]1O
[C] CNC(=O)OC[C@H]1O[C@@H](n2cnc3c(N[C@@H]4CCOC4)nc(Cl)nc32)[C@](C)(O)[C@@H]1O
Exam item: Order the entries by their reported Ratio Ki, beginning at the minimum. Please express your ranking as an ordered list of the labels.
Marked response: C, B, A

---

# Measurement Target: A1 adenosine receptor (Sus scrofa)
# Assay Comment: Agonist activity at adenosine A1 receptor in pig cortical membrane assessed as stimulation of GTPgammaS binding
Test Readout: EC50 (nM)

[A] C[C@@]1(O)[C@H](O)[C@@H](CO)O[C@H]1n1cnc2c(N[C@@H]3CCOC3)nc(Cl)nc21
[B] CNC(=O)OC[C@H]1O[C@@H](n2cnc3c(NC4CCCC4)nc(Cl)nc32)[C@](C)(O)[C@@H]1O
Exam item: Which of these two has the smaller recorded EC50: A or B ? // return label of chosen record
Marked response: B

[I] CNC(=S)OC[C@H]1O[C@@H](n2cnc3c(N[C@@H]4CCOC4)ncnc32)[C@](C)(O)[C@@H]1O
[II] C[C@@]1(O)[C@H](O)[C@@H](CO)O[C@H]1n1cnc2c(N[C@@H]3CCOC3)ncnc21
Exam item: Hi there! Just curious which has the higher EC50 between I and II . Record your answer as the label of the chosen record.
Marked response: II
(II: 3620 nM, I: 2400 nM)

---

# Measurement Target: Adenosine receptor A1 (Bos taurus, UniProt P28190)
# Sequence (P28190 whole entry): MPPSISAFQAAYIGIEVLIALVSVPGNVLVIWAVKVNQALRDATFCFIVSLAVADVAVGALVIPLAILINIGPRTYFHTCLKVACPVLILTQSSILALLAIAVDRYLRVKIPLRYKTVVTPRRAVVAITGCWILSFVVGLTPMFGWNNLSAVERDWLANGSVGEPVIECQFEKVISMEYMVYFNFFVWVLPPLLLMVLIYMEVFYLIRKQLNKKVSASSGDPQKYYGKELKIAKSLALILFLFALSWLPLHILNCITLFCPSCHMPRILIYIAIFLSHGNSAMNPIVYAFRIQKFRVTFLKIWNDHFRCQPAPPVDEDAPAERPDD
# Type: cell membranes
Test Readout: pKi
# pKi is unitless: minus log10 of the molar concentration; print number only

Exam item: Please state recorded pKi (tested on Adenosine receptor A1 (Bos taurus, UniProt P28190)) of OC[C@H]1O[C@@H](n2cnc3c(NC4CCCC4)nc(Cl)nc32)[C@H](O)[C@@H]1O
Marked response: 9.47

---

# Measurement Target: A1 adenosine receptor (Sus scrofa) (UniProt Q4VQ11)
# Sequence (whole entry): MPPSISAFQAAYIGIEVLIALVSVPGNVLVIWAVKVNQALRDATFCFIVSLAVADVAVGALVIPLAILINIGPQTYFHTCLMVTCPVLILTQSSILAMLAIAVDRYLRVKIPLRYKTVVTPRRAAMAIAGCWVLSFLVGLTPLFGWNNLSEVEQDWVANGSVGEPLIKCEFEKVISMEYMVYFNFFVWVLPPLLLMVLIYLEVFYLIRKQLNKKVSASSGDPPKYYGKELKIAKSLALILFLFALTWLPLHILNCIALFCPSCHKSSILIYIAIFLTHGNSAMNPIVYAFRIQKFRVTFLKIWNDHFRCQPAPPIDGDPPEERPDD
# Assay Comment: Agonist activity at adenosine A1 receptor in pig cortical membrane assessed as stimulation of GTPgammaS binding relative to CPA
# Assay type: functional, cell membranes
Test Readout: Efficacy (%)

Please review the following examples before continuing.
Structure | Reported Result
C[C@@]1(O)[C@H](O)[C@@H](COC(=O)NCc2ccccc2)O[C@H]1n1cnc2c(NC3CCCC3)nc(Cl)nc21 | 54
C[C@@]1(O)[C@H](O)[C@@H](CO)O[C@H]1n1cnc2c(N[C@@H]3CCOC3)nc(Cl)nc21 | 96
OC[C@H]1O[C@@H](n2cnc3c(NC4CCCC4)ncnc32)[C@H](O)[C@@H]1O | 100
CNC(=S)OC[C@H]1O[C@@H](n2cnc3c(N[C@@H]4CCOC4)ncnc32)[C@](C)(O)[C@@H]1O | 56
CNC(=S)OC[C@H]1O[C@@H](n2cnc3c(NC4CCCC4)nc(Cl)nc32)[C@](C)(O)[C@@H]1O | 64

[a] CNC(=O)OC[C@H]1O[C@@H](n2cnc3c(NC4CCCC4)nc(Cl)nc32)[C@](C)(O)[C@@H]1O
[b] C[C@@]1(O)[C@H](O)[C@@H](CO)O[C@H]1n1cnc2c(N[C@@H]3CCOC3)ncnc21
Exam item: I'm curious whether a or b has the smaller Efficacy number. Which is it? Could you answer with the label of the item you picked?
Marked response: a
(a: 61%, b: 95%)

---

Listed here: compounds with reported Ki for Uncharacterized protein (Bos taurus).
Could you give me the number in µM? Just the number is fine.

Example compounds with recorded Ki:
Compound | Measurement Target | Ki [µM]
OC[C@H]1O[C@@H](n2cnc3c(N[C@@H]4CCOC4)nc(Cl)nc32)[C@H](O)[C@@H]1O | Uncharacterized protein (Bos taurus) | 4.69
C[C@@]1(O)[C@H](O)[C@@H](COC(=S)NCc2ccccc2)O[C@H]1n1cnc2c(NC3CCCC3)nc(Cl)nc21 | Uncharacterized protein (Bos taurus) | 7.9
OC[C@H]1O[C@@H](n2cnc3c(NC4CCCC4)ncnc32)[C@H](O)[C@@H]1O [N6-CYCLOPENTYLADENOSINE] | Uncharacterized protein (Bos taurus) | 1.22
OC[C@H]1O[C@@H](n2cnc3c(N[C@@H]4CCOC4)ncnc32)[C@H](O)[C@@H]1O [TECADENOSON] | Uncharacterized protein (Bos taurus) | 7.3
CNC(=S)OC[C@H]1O[C@@H](n2cnc3c(NC4CCCC4)nc(Cl)nc32)[C@](C)(O)[C@@H]1O | Uncharacterized protein (Bos taurus) | 15

Exam item: Dear colleague, I am looking for the recorded Ki of the following compound: C[C@@]1(O)[C@H](O)[C@@H](CO)O[C@H]1n1cnc2c(NC3CCCC3)nc(Cl)nc21
Marked response: 4.56

Exam item: Another compound: C[C@@]1(O)[C@H](O)[C@@H](COC(=O)NC2CCCC2)O[C@H]1n1cnc2c(NC3CCCC3)nc(Cl)nc21
Marked response: 12.8

---

Adenosine receptor A2 (Sus scrofa, UniProt K9IW67) data, read-out Ki
Your answer should be a plain number; it is taken to be in µM.

Here are 4 compounds together with their reported answers.
Structure | Measurement Target | Ki, µM
C[C@@]1(O)[C@H](O)[C@@H](CO)O[C@H]1n1cnc2c(NC3CCCC3)nc(Cl)nc21 | Adenosine receptor A2 (Sus scrofa, UniProt K9IW67) | 12
OC[C@H]1O[C@@H](n2cnc3c(NC4CCCC4)nc(Cl)nc32)[C@H](O)[C@@H]1O | Adenosine receptor A2 (Sus scrofa, UniProt K9IW67) | 0.65
C[C@@]1(O)[C@H](O)[C@@H](CO)O[C@H]1n1cnc2c(NC3CCCC3)ncnc21 | Adenosine receptor A2 (Sus scrofa, UniProt K9IW67) | 11.4
CNC(=S)OC[C@H]1O[C@@H](n2cnc3c(NC4CCCC4)nc(Cl)nc32)[C@](C)(O)[C@@H]1O | Adenosine receptor A2 (Sus scrofa, UniProt K9IW67) | 9.2

Now consider the entry below.
Exam item: Which Ki is listed for C[C@@]1(O)[C@H](O)[C@@H](COC(=S)NCc2ccccc2)O[C@H]1n1cnc2c(N[C@@H]3CCOC3)nc(Cl)nc21 ?
Marked response: 14.1

---

# Measurement Target: A1 adenosine receptor (Sus scrofa)
# Sequence (Q4VQ11 whole entry): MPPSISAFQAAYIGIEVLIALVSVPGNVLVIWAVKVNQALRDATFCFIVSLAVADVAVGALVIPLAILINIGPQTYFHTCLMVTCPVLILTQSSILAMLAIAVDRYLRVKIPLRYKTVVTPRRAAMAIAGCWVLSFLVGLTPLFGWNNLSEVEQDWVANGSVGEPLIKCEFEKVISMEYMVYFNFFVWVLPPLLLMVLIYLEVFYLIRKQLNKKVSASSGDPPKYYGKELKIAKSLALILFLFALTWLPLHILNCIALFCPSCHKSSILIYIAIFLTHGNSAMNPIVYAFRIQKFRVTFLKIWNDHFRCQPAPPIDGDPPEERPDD
Test Readout: Ki (nM)

Here are 7 compounds together with their reported answers.
Structure | Measurement Target | Reported Result
OC[C@H]1O[C@@H](n2cnc3c(NC4CCCC4)nc(Cl)nc32)[C@H](O)[C@@H]1O | A1 adenosine receptor (Sus scrofa) | 0.3
CCCNC(=S)OC[C@H]1O[C@@H](n2cnc3c(N[C@@H]4CCOC4)nc(Cl)nc32)[C@](C)(O)[C@@H]1O | A1 adenosine receptor (Sus scrofa) | 1450
C[C@@]1(O)[C@H](O)[C@@H](COC(=O)NC2CCCC2)O[C@H]1n1cnc2c(NC3CCCC3)nc(Cl)nc21 | A1 adenosine receptor (Sus scrofa) | 370
OC[C@H]1O[C@@H](n2cnc3c(N[C@@H]4CCOC4)nc(Cl)nc32)[C@H](O)[C@@H]1O | A1 adenosine receptor (Sus scrofa) | 6.6
C[C@@]1(O)[C@H](O)[C@@H](COC(=O)NCc2ccccc2)O[C@H]1n1cnc2c(NC3CCCC3)nc(Cl)nc21 | A1 adenosine receptor (Sus scrofa) | 410
CNC(=S)OC[C@H]1O[C@@H](n2cnc3c(NC4CCCC4)nc(Cl)nc32)[C@](C)(O)[C@@H]1O | A1 adenosine receptor (Sus scrofa) | 13
C[C@@]1(O)[C@H](O)[C@@H](COC(=S)NCc2ccccc2)O[C@H]1n1cnc2c(N[C@@H]3CCOC3)nc(Cl)nc21 | A1 adenosine receptor (Sus scrofa) | 2870

[P] C[C@@]1(O)[C@H](O)[C@@H](CO)O[C@H]1n1cnc2c(N[C@@H]3CCOC3)nc(Cl)nc21
[Q] CNC(=O)OC[C@H]1O[C@@H](n2cnc3c(N[C@@H]4CCOC4)nc(Cl)nc32)[C@](C)(O)[C@@H]1O
Exam item: Sorting by Ki in descending order, would P or Q appear first? Write down the label of the entry you select.
Marked response: Q
